PROCEDURE_SUMMARY: NCI Yeast Anticancer Drug Screen. Data for the mec2-1 strain (AID 157)
MEASUREMENT_CONDITIONS: S. cerevisiae mec2-1 strain, at 50.0 µM
About 79,000 compounds went through this panel and 15% of them were active in at least one assay; those are over-represented in the sample as a whole. Activity calls are given as the source filed them. No stated cut-off is given here; in the data, active means growth inhibition above about 70%; inactive means the rest.
The reply should be one of these categories: active, inactive

Query: Returns: the outcome recorded for O=C(O)C(CSC(c1ccccc1)(c1ccccc1)c1ccccc1)Nc1ccccc1[N+](=O)[O-] (stereo not drawn) in this assay.
Result: active

Query: Returns: the outcome recorded for CC(NNC(=S)N1CC2CCC(CC2)C1)c1cccc[n+]1[O-] (stereo not drawn) in this assay.
Result: inactive

Query: Returns: the outcome recorded for COC(=O)C(Cc1nc2ccccc2[nH]c1=O)C(=O)C(=O)Nc1ccc([N+](=O)[O-])cc1[N+](=O)[O-] (stereo not drawn) in this assay.
Result: inactive

Query: Returns: the outcome recorded for CCOC(=O)NC(Nc1ccc(F)c(F)c1)(C(=O)OCC)C(F)(F)F (stereo not drawn) in this assay.
Result: inactive

Query: Returns: the outcome recorded for OCCN(Cc1ccccc1)C(c1ccccc1)c1ccccc1 in this assay.
Result: active

Query: Returns: the outcome recorded for CC(C)OC(=O)C1=C(C(=O)OC(C)C)CCCC1 in this assay.
Result: inactive

Query: Returns: the outcome recorded for CCOC(=O)CC(=O)C(=O)NNC1=NCCCN1 in this assay.
Result: inactive

Query: Returns: the outcome recorded for COc1cccc2c1[C@@]1(C)C3C(=O)OC(C)(c4ccccc43)[C@@]1(C)C2=O (stereo partly drawn) in this assay.
Result: inactive

Query: Returns: the outcome recorded for OCCc1nccnn1 in this assay.
Result: inactive

Query: Returns: the outcome recorded for O=C(CN1C(=O)c2ccccc2C1=O)NC(Cc1ccccc1)C(=O)O (stereo not drawn) in this assay.
Result: inactive

Query: Returns: the outcome recorded for Cn1cnc([N+](=O)[O-])c1Sc1n[nH]c(-c2ccc(Cl)cc2)n1 in this assay.
Result: inactive

Query: Returns: the outcome recorded for O=C(Cc1c[nH]c2ccccc12)N/N=C/c1ccccc1[N+](=O)[O-] in this assay.
Result: inactive

Query: Returns: the outcome recorded for CCOC(=O)C1CC2(CCC(=O)O2)C(=O)O1 (stereo not drawn) in this assay.
Result: inactive

Query: Returns: the outcome recorded for Clc1ccc(N=C2c3ccccc3CN2c2ccc(Cl)cc2)cc1 in this assay.
Result: inactive

Query: Returns: the outcome recorded for Clc1ccc2oc(N3CCOCC3)nc2c1 in this assay.
Result: inactive

Query: Returns: the outcome recorded for COc1nc(NC2OCC(OC(C)=O)C(OC(C)=O)C2OC(C)=O)c(N=C(C)C(C)=O)c(=O)n1C (stereo not drawn) in this assay.
Result: inactive

Query: Returns: the outcome recorded for COC(=O)n1c(CBr)c(Br)c2ccccc21 in this assay.
Result: inactive

Query: Returns: the outcome recorded for COc1ccc2cc3[n+](cc2c1O)CCc1cc2c(cc1-3)OCO2 in this assay.
Result: inactive

Query: Returns: the outcome recorded for CCNC(=O)OCc1c(COC(=O)NCC)c(-c2ccc(Cl)c(Cl)c2)n2c1CCC2 in this assay.
Result: inactive

Query: Returns: the outcome recorded for CCOc1snc(C(Cl)(Cl)Cl)c1Cl in this assay.
Result: inactive

Query: Returns: the outcome recorded for COc1ccc(CNc2ccccc2)cc1OC in this assay.
Result: inactive

Query: Returns: the outcome recorded for S=C(NCN1CCCCC1)NCN1CCCCC1 in this assay.
Result: inactive

Query: Returns: the outcome recorded for CCNCC(OC)C(COC)OC(=O)c1ccc([N+](=O)[O-])cc1 (stereo not drawn) in this assay.
Result: inactive

###

PROCEDURE_SUMMARY: NCI Yeast Anticancer Drug Screen. Data for the sgs1 mgt1 strain (AID 161);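 further: 0% = growth of cultures given vehicle only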
MEASUREMENT_CONDITIONS: S. cerevisiae sgs1 mgt1 strain, at 50.0 µM, active compounds read high
This is part of a sample that, as a whole, favours compounds with a hit. Of some 79,000 tested, about 15% had one in any assay.
So I've got a bunch of compounds here, and I need their growth inhibition values.
API: value field is a number in %; no unit string.

Query: I'd like to know its growth inhibition. The compound in question is CC(=O)[CH-]C(=O)c1ccccc1.CC(=O)[CH-]C(=O)c1ccccc1.CC[O-].O=C1C=C([O-])C(=O)c2ccccc21.[Ti+4]
Result: 63.5

Query: I'd like to know its growth inhibition. The compound in question is N#CC1CCCC(c2ccccc2)(C2CCCCC2)C1=O (stereo not drawn)
Result: 10.2

Query: I'd like to know its growth inhibition. The compound in question is O=C(C[N+]12CN3CN(CN(C3)C1)C2)c1cccc2ccccc12
Result: 9.35

Query: I'd like to know its growth inhibition. The compound in question is Cn1c(CC(O)(C(F)(F)Cl)C(F)(F)Cl)cc(=O)n1-c1ccccc1
Result: 8.7

Query: I'd like to know its growth inhibition. The compound in question is Cc1nc(-c2nc(C(=O)NCCC[S+](C)C)cs2)cs1
Result: -5.4

Query: I'd like to know its growth inhibition. The compound in question is Cc1ccc(S(=O)(=O)N/N=C(\c2nc3ccc([N+](=O)[O-])cc3[nH]c2=O)C(O)c2ccccc2Cl)cc1 (stereo not drawn)
Result: 11.6

Query: I'd like to know its growth inhibition. The compound in question is Cc1cc(Cl)ccc1OCCCC(=O)NC(Cc1ccccc1)C(=O)O (stereo not drawn)
Result: -2.15

Query: I'd like to know its growth inhibition. The compound in question is Oc1ccc(CCC2CCNCC2)cc1
Result: 7.7

Query: I'd like to know its growth inhibition. The compound in question is Cc1ccccc1-c1c2ccccc2cc2c1ccc1ccccc12
Result: -5.05

Query: I'd like to know its growth inhibition. The compound in question is NC(=O)Nc1ccc(Cc2ccc(NC(N)=O)cc2)cc1
Result: 10.7

Query: I'd like to know its growth inhibition. The compound in question is C=CCOC(=O)OCCOC(=O)OCC=C
Result: -2.05

Query: I'd like to know its growth inhibition. The compound in question is CCC(CC)CC1CCCCC1=O (stereo not drawn)
Result: -6.25

Query: I'd like to know its growth inhibition. The compound in question is Nc1ccc(S(=O)(=O)Nc2nc(CN3CCCCC3)cs2)cc1
Result: 3.3

Query: I'd like to know its growth inhibition. The compound in question is Cc1cc2c(=O)c(C)c[nH]c2cc1Cl
Result: -2.6

Query: I'd like to know its growth inhibition. The compound in question is COC(=O)COc1cc2c(cc1C(C)c1ccc(O)cc1)OCO2 (stereo not drawn)
Result: 99

Query: I'd like to know its growth inhibition. The compound in question is CC1CCC(C(C)C)C(OC(=O)N/N=C/N(C)C)C1 (stereo not drawn)
Result: 4.4

Query: I'd like to know its growth inhibition. The compound in question is C=C(Br)CN=CN(C)C
Result: 10.9

Query: I'd like to know its growth inhibition. The compound in question is CCN(CCNc1cc(OC)cc2cccnc12)c1ccccc1
Result: 48.4

Query: I'd like to know its growth inhibition. The compound in question is CNC(=O)Sc1ccc([N+](C)(C)C)cc1
Result: 19.8

Query: I'd like to know its growth inhibition. The compound in question is CS(=O)(=O)OCCCCCCCCCCCC1C=CCC1 (stereo not drawn)
Result: 5.15

Query: I'd like to know its growth inhibition. The compound in question is CC(=O)Oc1ccc(CC(C)C(C)Cc2ccc(OC(C)=O)c(OC(C)=O)c2)cc1OC(C)=O (stereo not drawn)
Result: 50

Query: I'd like to know its growth inhibition. The compound in question is Cn1c(=O)c2c(ncn2CC(=O)O)n(C)c1=O
Result: -8.5

Query: I'd like to know its growth inhibition. The compound in question is Cc1ccc(S(=O)(=O)NC2C(=O)c3ccccc3C(=O)C2n2ccnc2)cc1 (stereo not drawn)
Result: 0.75

Query: I'd like to know its growth inhibition. The compound in question is CC(=O)c1cc2c(cc1C)C(C)=C(C)C2(C)C
Result: 1.55

Query: I'd like to know its growth inhibition. The compound in question is COc1c(C)cc(Cc2ccc3c(c2)OCO3)cc1C
Result: 4.2

Query: I'd like to know its growth inhibition. The compound in question is CC(=O)Nc1ccc(/C=C2\CCOC2=O)cc1[N+](=O)[O-]
Result: 7.15

Query: I'd like to know its growth inhibition. The compound in question is CCOC(=O)/C(=C\c1cc(C)c(OC(C)=O)c(OC)c1)NC(=O)c1ccccc1
Result: -11.1

Query: I'd like to know its growth inhibition. The compound in question is Nc1nc2[nH]c(=O)c(C(=O)O)nc2c(=O)[nH]1
Result: -5.05

Query: I'd like to know its growth inhibition. The compound in question is COC(=O)c1ccc(C(=O)OC)c2nn3c(N)nnc3nc12
Result: 7.55

Query: I'd like to know its growth inhibition. The compound in question is COc1cccc2c1C(CO)N1C(C#N)C3CC(C(=O)O)C(C1C2)N3C (stereo not drawn)
Result: -28.3

Query: I'd like to know its growth inhibition. The compound in question is Clc1ccc(-c2nc(CSc3ccccn3)cs2)cc1
Result: 49.5

Query: I'd like to know its growth inhibition. The compound in question is CC1(C(=O)O)CCCN1 (stereo not drawn)
Result: -20.6

Query: I'd like to know its growth inhibition. The compound in question is C=Cc1c(C)c2cc3[nH]c(cc4nc(cc5nc(cc1[nH]2)C(C)=C5CCC(=O)OC)C(CCC(=O)OC)=C4C)c(C)c3C=C
Result: 10.3

Query: I'd like to know its growth inhibition. The compound in question is CCC(=O)NCCO
Result: -5.65

Query: I'd like to know its growth inhibition. The compound in question is COC(=O)C(=[N+]=[N-])C(=O)c1ccccc1
Result: -1.3

Query: I'd like to know its growth inhibition. The compound in question is O=C1c2ccccc2C(=O)c2c1c([N+](=O)[O-])c1c(c2[N+](=O)[O-])OCO1
Result: 21.8

Query: I'd like to know its growth inhibition. The compound in question is O=C(O)c1ccccc1C(=O)OCC1CCc2ccccc2C1 (stereo not drawn)
Result: 28.3

Query: I'd like to know its growth inhibition. The compound in question is c1ccc(CCCCc2ccccc2)cc1
Result: 14.1

Query: I'd like to know its growth inhibition. The compound in question is CCC(O)(Cc1ccc(OC)cc1)c1ccc(OC)cc1 (stereo not drawn)
Result: 14.8

Query: I'd like to know its growth inhibition. The compound in question is CN1Cc2cc3c(cc2-c2ccccc21)OCO3
Result: -44.9

Query: I'd like to know its growth inhibition. The compound in question is COc1ccc(OC)c(NC(=O)C2=C(C)NC(C)=C(C(=O)Nc3cc(OC)ccc3OC)C2c2cccc([N+](=O)[O-])c2)c1
Result: 1.9

Query: I'd like to know its growth inhibition. The compound in question is CN1COc2c3c(c4ccccc4c2C1)CN(C)CO3
Result: 1.2

Query: I'd like to know its growth inhibition. The compound in question is CC1(C)CC(=O)C=C(NCCCCCCCCNC2=CC(=O)CC(C)(C)C2)C1
Result: 5.7

Query: I'd like to know its growth inhibition. The compound in question is COCC(=O)Oc1ccc[nH]c1=O
Result: 7.85

Query: I'd like to know its growth inhibition. The compound in question is C=CCC(c1ccccc1)(c1ccccc1)c1ccccc1
Result: 3.65

Query: I'd like to know its growth inhibition. The compound in question is NC(=O)N=P(c1ccccc1)(c1ccccc1)c1ccccc1
Result: -6

Query: I'd like to know its growth inhibition. The compound in question is O=C1C[C@@H]2CCCC[C@@H]2C12SCCS2
Result: -6.95

Query: I'd like to know its growth inhibition. The compound in question is OC1COC2CC(Nc3ccccn3)OC12 (stereo not drawn)
Result: -15.8

The measurements presented in this section are drawn from PubChem BioAssay (NCI).
